# STUDY TARGET: pooled human IgG
The label depends only on Enzyme Activity Endpoint Assay (purified): Fc: MET if it is at least 200 ng/µL, NOT MET if it is smaller.

The examples below pair each entry with its known result.
[
  {
    "PROTEIN": "PRT-274 (protein) MVTSVWTKGVTPPTDFIYGEDVLHAPYKAGQGWYDITKTFNGKDNLLCGAATAGNMLHWWFDQNKEQIENYLKKHPEKQKIIFNNQELFDLKAAIDTKDSQLDSKLFDYFKEKAFPNLSTKHLGVFPDHVIDMFINGYRLSLLNHGPTPVKRGSKDKRGGIFDAVFTRGVQSKLLTNRHDLKNKTLKEISDLIKQELTEGKALGISHTYANVRINHVINLWGADFDAEGNLEAIYVTDSDTNPSIGMKKYFVGVNSSGKVAISAKEIEEDNIGAQVLGLFTLSTGQDIWNQTN",
    "CATEGORY": "MET"
  },
  {
    "PROTEIN": "PRT-166 (protein) MANQEIRYSEVTPYHVTSVWTKGVTPPANFTQGEDVFHAPYVANQGWYDITKAFDGGDDLLCGAATAGNMLHWWFDQNKDQIKRYLEEHPEKQKINFNGEQMFDVKEAIDTKNSQTNSELFNYFKEKAFPYLSTKHLGVFPDHVIDMFINGYRLSLTNHGPTPVKEGSKDPRGGIFDAVFTRGDQSKLLTSRHDFKEKNLKEISDLIKKELTEGKALGLSHTYANVRINHVINLWGADFDSNGNLKAIYVTDSDSNASIGMKKYFVGVNSAGKVAISAKEIKEDNIGAQVLGLFTLSTGQDSWNQTN",
    "CATEGORY": "NOT MET"
  },
  {
    "PROTEIN": "PRT-258 (protein) MVTSVWTKGVTPPTNFTYGEDVLHAPYVANQGWYDITKLFNGKDDLLCGAATAGNMLHWWFDQNKEQIENYLKKHPEKQKINFNGEQMFDVKEAIDTKDSQLDSKLFEYFLEKAFPYLSTKHLGVFPDHVIDMFINGYRLSLTNHGPTPVKRGSKDPRGGIFDAVFTRGDQSKLLTNRHDFKEKTLKEISDLIKQELTEGKALGISHTYANVRINHVINLWGADFDAEGNLEAIAVTDSDSNASIGMKKYFVGVNSSGKVAISAKEIEEDNIGAQVLGLFTLSTGQDIWNQTN",
    "CATEGORY": "MET"
  },
  {
    "PROTEIN": "PRT-71 (protein) MANQEIRYSEVTPYHVTSVWTKGVTPPANFTQGEDVFHAPYVANQGWYDITKTFNGKDDLLCGAATAGNMLHWWFDQNKEEIEAYLKKHPEKQKIMFGDQELLDVRKVINTKGSQTNSELFNYFRDKAFPGLSARRLGVMPDLVLDMFINGYYLNVYKTQTTDVNRTYQEKDKRGGIFDAVFTRGDQSKLLTSRHDFKEKNLKEISDLIKKELTEGKALGLSHTYANVRINHVINLWGADFDSNGNLKAIYVTDSDSNASIGMKKYFVGVNSAGKVAISAKEIKEDNIGAQVLGLFTLSTGQDIWNQTN",
    "CATEGORY": "NOT MET"
  },
  {
    "PROTEIN": "PRT-298 (protein) MVTSVWTKGVTPPTDFIKGEDVFHAPYKAGQGWYDITKTFNGKDDLLCGAATAGNMLHWWFDQNKEYIEAYLKKHPEKQKIMFGDQELLDVRKAINTKGSQKNSELFNYFRDKAFPNLSARRLGVMPDLVLDMFINGYYLNVTKTQTTDVNRTYQEKDKRGGIFDAVFTRGDQSKLLTSRHDFKEKGLKEISDLIKQELTEGKALGLSHTYANVGINHVINLWGADFDSDGNLKAIYVTDSDSNASIGMKKYFVGVNSSGKVAISAKEIKEDNIGAQVLGLFTLSTGQDIWNQTN",
    "CATEGORY": "MET"
  },
  {
    "PROTEIN": "PRT-606 (protein) MQITSVWTKGVTPLTPEQFRYNNEDVIHAPYLAHQGWYDITKAFDGKDNLLCGAATAGNMLHWWFDQNKTEIEAYLSKYPDKQKIIFNNQELFDLKAAIDTKDSQTNSQLFNYFRDKAFPNLSARQLGVMPDLVLDMFINGYYLNVFKTQSTDVNRPYQDKDKRGGIFDAVFTRGDQTTLLTARHDLKNKGLNDISTIIKQELTEGRALALSHTYANVSISHVINLWGADFNAEGNLEAIYVTDSDANASIGMKKYFVGINAHGHVAISAKKIEGENIGAQVLGLFTLSSGKEIWQKLSLEHHHHHH",
    "CATEGORY": "MET"
  }
]

## Input Does the reported Enzyme Activity Endpoint Assay (purified): Fc for PRT-632 (protein) MQITSVWTYGVTPLTPEQFRYNNYEVIHAPYKEGQGWYDITKAFDGKDNLLCGAATAGNMLHWWFDQNKTEIEAYLSKHPEKQKIIFNNQELFDLKAAIDTKDSQTNSQLFNYFRDKAFPNLSARQLGVMPDLVLDMFINGYYLNVFKTQSTDVNRPYQDKDKRGGIFDAVFTRGDQTTLLTARHDLKNKGLNDISTIIKQELTEGRALALSHTYANVSISHVINLWGADFNAEGNLEAIYVTDSDANASIGMKKYFVGINAHGHVAISAKKIEGENIGAQVLGLFTLSSGKDIWQKLSLEHHHHHH fall at or above the 200 ng/µL mark?
## Output MET

## Input Please indicate if the recorded Enzyme Activity Endpoint Assay (purified): Fc for PRT-289 (protein) MVTSVWTKGVTPPADFTQGEDVFHAPYVANQGWYDITKTFNGKDDLLCGAATAGNMLHWWFDQNKEYIEAYLKKHPEKQKIMFGDQELLDVRKAINTKGSQKNSELFNYFRDKAFPNLSARRLGVMPDLVLDMFINGYYLNVTKTQTTDVNRTYQEKDKRGGIFDAVFTRGDQSKLLTSRHDFKEKGLKEISDLIKQELTEGKALGLSHTYANVGINHVINLWGADFDSDGNLKAIYVTDSDSNASIGMKKYFVGVNSSGKVAISAKEIKEDNIGAQVLGLFTLSTGQDIWNQTN meets or exceeds 200 ng/µL.
## Output MET
